# System: Paecilomyces variotii
# EXPERIMENT: Antimicrobial activity against Paecilomyces variotii NBRC4855 after 3-5 days by broth dilution method
# RECORDED_CONDITIONS: NBRC4855, 3-5 days
Field: MIC. Provide a value for each of the compounds that follow.
Please respond with the number in µg/mL and leave the unit unwritten.

Reported MIC for C[C@@H](O)c1cc2c(o1)C(=O)c1c(O)cccc1C2=O : what is it?
50

Reported MIC for CC(=O)c1cc2c(o1)C(=O)c1cccc(O)c1C2=O : what is it?
100

Reported MIC for C[C@@H](O)c1cc2c(o1)C(=O)c1cccc(O)c1C2=O : what is it?
25

Reported MIC for C[C@H](O)c1cc2c(o1)C(=O)c1c(O)cccc1C2=O : what is it?
50

Hey, just so you know, these numbers are from ChEMBL document CHEMBL1152539.
